- SYSTEM UNDER TEST: ENT1 (Homo sapiens, UniProt Q99808)
- Sequence (Q99808 1-456): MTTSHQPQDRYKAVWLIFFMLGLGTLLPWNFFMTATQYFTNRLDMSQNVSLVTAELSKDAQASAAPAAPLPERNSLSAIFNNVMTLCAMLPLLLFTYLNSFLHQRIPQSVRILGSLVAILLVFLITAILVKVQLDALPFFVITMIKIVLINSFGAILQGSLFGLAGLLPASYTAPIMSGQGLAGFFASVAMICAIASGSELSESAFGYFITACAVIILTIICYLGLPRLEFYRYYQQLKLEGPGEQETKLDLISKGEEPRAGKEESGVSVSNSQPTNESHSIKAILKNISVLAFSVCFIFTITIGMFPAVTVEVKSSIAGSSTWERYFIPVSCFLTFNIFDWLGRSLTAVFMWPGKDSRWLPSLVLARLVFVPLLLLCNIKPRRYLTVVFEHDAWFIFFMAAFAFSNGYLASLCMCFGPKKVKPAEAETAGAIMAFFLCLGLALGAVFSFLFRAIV
- TEST NAME: [3H]uridine uptake in PK15NTD/ENT1 cells
- COND: [3H]uridine 1 μM, 1 min, PK15NTD/ENT1 cells; read-out: IC50 against ENT1
MEASURE NAME: pIC50
Here pIC50 is given on a logarithmic scale as minus log10 of the concentration in mol/L.

{"columns": ["COMPOUND STRING", "pIC50"],
 "data": [
  ["Nc1nc(CN2CCN(c3ccccc3)CC2)nc(Nc2cccc3ccccc23)n1", 3.98]
]}

Request: What does the record list as pIC50 for Nc1nc(CN2CCN(c3ccccc3F)CC2)nc(Nc2cccc(Cl)c2)n1 ?
Result: 5.74

Request: What does the record list as pIC50 for Cc1cccc(Nc2nc(N)nc(CN3CCN(c4ccc(F)cc4)CC3)n2)c1 ?
Result: 5.62

Request: What does the record list as pIC50 for COc1ccc(Nc2nc(N)nc(CN3CCN(c4ccccc4F)CC3)n2)cc1 ?
Result: 6.23

Request: What does the record list as pIC50 for Nc1nc(CN2CCN(c3ccc(F)cc3)CC2)nc(Nc2cccc(Cl)c2)n1 ?
Result: 5.78

Request: What does the record list as pIC50 for CCc1ccc(Nc2nc(N)nc(CN3CCN(c4ccccc4F)CC3)n2)cc1 ?
Result: 3.77

Request: What does the record list as pIC50 for Nc1nc(CN2CCN(c3cccc(Cl)c3)CC2)nc(Nc2cccc3ccccc23)n1 ?
Result: 4.90
